# Tested on: Staphylococcus aureus
# assay.remarks: Antibacterial activity against Staphylococcus aureus ATCC 25923 after 24 hr by serial dilution method
# Assay type: functional
# reported.conditions: ATCC 25923, 24 h

[
  {
    "compound": "O=c1[nH]cnc2c1C(c1ccccc1)c1ccc3ccccc3c1O2 (stereo unspecified)",
    "MIC / µg/mL": 62.5
  },
  {
    "compound": "CC1(C)S[C@@H]2[C@H](NC(=O)[C@H](N)c3ccccc3)C(=O)N2[C@H]1C(=O)O [AMPICILLIN]",
    "MIC / µg/mL": 100
  },
  {
    "compound": "O=c1[nH]cnc2c1C(c1ccccc1)c1ccc(O)cc1O2 (stereo unspecified)",
    "MIC / µg/mL": 500
  },
  {
    "compound": "O=c1[nH]cnc2c1C(c1ccccc1)c1ccccc1O2 (stereo unspecified)",
    "MIC / µg/mL": 250
  },
  {
    "compound": "O=c1[nH]cnc2c1C(c1ccccc1)c1c(ccc3ccccc13)O2 (stereo unspecified)",
    "MIC / µg/mL": 125
  },
  {
    "compound": "S=c1[nH]c2c(c(=S)[nH]1)C(c1ccccc1)c1ccccc1O2 (stereo unspecified)",
    "MIC / µg/mL": 500
  },
  {
    "compound": "S=c1[nH]c2c(c(=S)[nH]1)C(c1ccccc1)c1ccc3ccccc3c1O2 (stereo unspecified)",
    "MIC / µg/mL": 125
  },
  {
    "compound": "Nc1nc(=O)[nH]c2c1C(c1ccccc1)c1c(ccc3ccccc13)O2 (stereo unspecified)",
    "MIC / µg/mL": 62.5
  },
  {
    "compound": "Nc1nc(=O)[nH]c2c1C(c1ccccc1)c1ccc(O)cc1O2 (stereo unspecified)",
    "MIC / µg/mL": 125
  },
  {
    "compound": "Nc1nc(=S)[nH]c2c1C(c1ccccc1)c1c(ccc3ccccc13)O2 (stereo unspecified)",
    "MIC / µg/mL": 250
  },
  {
    "compound": "O=C(O)c1cn(C2CC2)c2cc(N3CCNCC3)c(F)cc2c1=O [CIPROFLOXACIN]",
    "MIC / µg/mL": 50
  }
]

Source: ChEMBL document CHEMBL3045157
